System: Plasmodium berghei
Assay: Screen against P. berghei liver stage (PbLuc), transformed with Luciferase, at 10uM
Type: functional, HepG2
Conditions: tested at 10 uM
In all, about 69,000 compounds went through this assay and about 8,600 (12%) showed an effect of 50% or more. Only a selection was taken, and strong results are over-represented in it overall.
Assign labels as follows, please: class 1 for INHIBITION below 40%; class 0 for INHIBITION equal to or exceeding 40%.

Cc1csc(CNC(=O)N2CCCC(c3nncn3C)C2)n1 (stereo unspecified)	class 1
COCCN1CCC(CNC(=O)C2(c3cc(C)cc(C)c3)CC2)CC1	class 1
COCCN1CCC(CNC(=O)Nc2ccc(-c3ccccc3)cc2)C1 (stereo unspecified)	class 0
Nc1cc(C(=O)NCC2CCN(CCc3ccccc3)C2)ccn1 (stereo unspecified)	class 1

In the following, a different compound is considered.
Problem: Item COCCN1CCC(CNC(=O)c2cc(C)cc(C)c2)C1 (stereo unspecified) : INHIBITION beneath 40%, strictly?
Result: class 0

----------
Tested on: Plasmodium berghei
Test: Screen against P. berghei liver stage (PbLuc), transformed with Luciferase, at 10uM
Assay type: functional, HepG2
Details: tested at 10 uM
Out of some 69,000 compounds screened, about 8,600 (12%) showed an effect of 50% or more. Shown is part of a subset that was picked to be rich in strong results.
readout-label: INHIBITION
Numeric answer plus unit only.

Cc1noc(C2CCN(C(=O)c3cc(Cl)c(Cl)n3C)CC2)n1	16.6%
CC(C)c1noc(CCCC(=O)NC2CCS(=O)(=O)C2)n1 (stereo not drawn)	-7.46%
CCC1=NN2C(=N)/C(=C/c3cccc(Cl)c3)C(=O)N=C2S1	37.7%

Problem: Param item = "CCOc1c(F)cccc1C(=O)N(C)CCc1ccccn1" ; retrieve measured INHIBITION.
Result: 24.7%

Problem: Param item = "Cc1ccc(NC(=O)c2cc3c(=O)n(C)c(=O)n(C)c3nc2C)cc1Cl" ; retrieve measured INHIBITION.
Result: -6.83%

Problem: Param item = "O=C(CC1CCCC1)N1C[C@H](Oc2cccnc2)[C@H]2OCCC[C@H]21" ; retrieve measured INHIBITION.
Result: -24.5%

Problem: Param item = CC(NC(N)=O)C(=O)NCc1ccc(Br)c(F)c1 (stereo not drawn) ; retrieve measured INHIBITION.
Result: -31.1%

Problem: Param item = "CCN(Cc1nc2c(cnn2C)c(=O)[nH]1)c1ccc(F)cc1" ; retrieve measured INHIBITION.
Result: 29.7%

----------
Test system: Plasmodium berghei
Test: Screen against P. berghei liver stage (PbLuc), transformed with Luciferase, at 10uM
Type: functional, HepG2
Settings: tested at 10 uM
Among all 69,000 compounds or so, about 8,600 (12%) showed an effect of 50% or more. The entries come from a sample that favours strong results as a whole.
Each record gets a class by INHIBITION: low: < -10%; medium: ≥ -10% and < 50%; high: ≥ 50%

Use the examples below as a reference point.
O=S(=O)(c1ccccc1)N1CCC2(CCCN2Cc2cccnc2)C1 (configuration not stated)	high
CCN(CC)CC1CN(Cc2cccc(C#N)c2)Cc2nccn2C1 (configuration not stated)	low
O=C(N1CCOCC1)N1C[C@@H]2CC[C@H]1CN(C1Cc3ccccc3C1)C2	low
C/N=C1/c2cc3cc(OC)ccc3n2CCN1Cc1ccccc1	high
C/N=C1\c2cc3cc(OC)ccc3n2CCN1C	medium

Problem: Would you mind sorting CCS(=O)(=O)N1CCCC2(CCCN2Cc2cccc(F)c2)C1 (configuration not stated) into the appropriate category?
Result: low

Problem: Would you mind sorting COc1ccccc1COCC(O)CN1CCC(c2ccn[nH]2)CC1 (configuration not stated) into the appropriate category?
Result: medium

Problem: Would you mind sorting Clc1cccc(N2CCC(NCc3ncc[nH]3)C2)c1 (configuration not stated) into the appropriate category?
Result: medium

Problem: Would you mind sorting CC(C(=O)Nc1cccc(Cl)c1)N1CCN(Cc2ncc[nH]2)CC1 (configuration not stated) into the appropriate category?
Result: medium

Problem: Would you mind sorting CCCc1noc(C2CCN(C(=O)C3CCCO3)CC2)n1 (configuration not stated) into the appropriate category?
Result: medium

Problem: Would you mind sorting Fc1cccc(C(NCc2ncc[nH]2)c2ccccn2)c1 (configuration not stated) into the appropriate category?
Result: low

Problem: Would you mind sorting Clc1cccc(C(NCc2ncc[nH]2)c2ccccn2)c1 (configuration not stated) into the appropriate category?
Result: high
